inhibition listing for selected compounds.
assay.system: Cytosolic purine 5'-nucleotidase (Homo sapiens) (UniProt P49902)
Sequence (P49902 whole entry): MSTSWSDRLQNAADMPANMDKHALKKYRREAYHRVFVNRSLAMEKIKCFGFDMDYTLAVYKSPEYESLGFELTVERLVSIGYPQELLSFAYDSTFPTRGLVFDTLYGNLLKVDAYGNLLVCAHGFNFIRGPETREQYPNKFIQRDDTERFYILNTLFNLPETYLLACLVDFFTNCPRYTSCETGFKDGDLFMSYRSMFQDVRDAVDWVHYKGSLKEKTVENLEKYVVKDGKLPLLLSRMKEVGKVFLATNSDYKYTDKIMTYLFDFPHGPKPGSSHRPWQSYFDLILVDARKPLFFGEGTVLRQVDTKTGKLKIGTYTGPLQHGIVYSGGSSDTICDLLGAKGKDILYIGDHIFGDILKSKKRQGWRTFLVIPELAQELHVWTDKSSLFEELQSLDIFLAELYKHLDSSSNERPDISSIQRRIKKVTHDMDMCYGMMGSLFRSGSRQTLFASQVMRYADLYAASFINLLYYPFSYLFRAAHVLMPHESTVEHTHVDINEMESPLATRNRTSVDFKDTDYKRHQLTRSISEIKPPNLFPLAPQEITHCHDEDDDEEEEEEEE
protocol.notes: Inhibition of nucleotidase activity of recombinant NT5C2 (unknown origin) pre-incubated for 10 mins before IMP substrate addition and further incubated for 5 mins in presence of 0.3 mM ATP by malachite green assay relative to control
reported.endpoint: inhibition

INSERT INTO assay_data (compound, reported_endpoint, result) VALUES
  ('CCc1c(C)nc(N)nc1NCCc1csc(N)n1', 'inhibition', '49%'),
  ('Cc1nc(N2CCC(c3cc(CC(=O)O)n[nH]3)CC2)cc(-n2cccn2)n1', 'inhibition', '49%'),
  ('Nc1nc(N2CCOCC2)cc(N2CCC(c3cc(CC(=O)O)[nH]n3)CC2)n1', 'inhibition', '85%'),
  ('Nc1nc2c(c(N3CCc4nc(N)sc4C3)n1)CCCC2', 'inhibition', '42%'),
  ('Nc1nc2c(c(NCCc3csc(N)n3)n1)CCCC2', 'inhibition', '75%'),
  ('Cc1cc(N2CCC(c3cc(CC(=O)O)n[nH]3)CC2)nc(N2CCCC2)n1', 'inhibition', '62%'),
  ('CCc1nc(N)nc(N2CCCOC(CN3CCOCC3)C2)c1C (stereo not drawn)', 'inhibition', '29%'),
  ('CCc1cc(NCCCc2csc(N)n2)nc(N)n1', 'inhibition', '54%');
